Consider the following sequences and their measured recombinant UMI read abundance (log10) readings.
assay: recombinant UMI read abundance after kanamycin selection (control-corrected) (log10(CPM+1)); higher = more efficient recombination; extreme values may be limits of the assay; sequences stand for … in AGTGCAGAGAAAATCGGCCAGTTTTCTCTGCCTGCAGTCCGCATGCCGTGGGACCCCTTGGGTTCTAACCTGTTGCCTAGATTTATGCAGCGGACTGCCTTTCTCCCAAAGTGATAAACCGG…AGGTTGGTTTCACT; site = the 11-nt donor
# respond with the number and nothing more

The examples below pair each entry with its known result.
In [3]: df
Out[3]:
                             sequence_chain                          endpoint_label  quantitative_readout
0  CTCTAGCCATGGACCGGTTTTCCCGGTAATCCGTATTTGCC (site CTCTAGCCTGG)  recombinant UMI read abundance (log10)                     0
1  GTTAGAACATGGACCGGTTTTCCCGGTAATCCGTATTTGTC (site GTTAGAACTGT)  recombinant UMI read abundance (log10)                 0.013
2  AAAGCAGCATGGACCGGTTTTCCCGGTAATCCGTATTTGCT (site GAAGCAGCTAG)  recombinant UMI read abundance (log10)                 0.198

Look at this sequence and give its reported recombinant UMI read abundance (log10). GCATGCACATGGACCGGTTTTCCCGGTAATCCGTATTTGTA (site GCATGCACTTA)
2.41

Look at this sequence and give its reported recombinant UMI read abundance (log10). CTACTTACATGGACCGGTTTTCCCGGTAATCCGTATTTGGA (site CTACTAACTTC)
0.0935

====

test: recombinant UMI read abundance after kanamycin selection (control-corrected) (log10(CPM+1)); higher = more efficient recombination; extreme values may be limits of the assay; sequences stand for … in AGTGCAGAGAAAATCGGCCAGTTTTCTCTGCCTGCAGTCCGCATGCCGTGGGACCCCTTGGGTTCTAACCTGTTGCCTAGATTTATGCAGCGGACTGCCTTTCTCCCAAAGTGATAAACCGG…AGGTTGGTTTCACT; site = the 11-nt donor
Entry flag: 1.0 if recombinant UMI read abundance (log10) reaches 1; 0.0 if it does not.

Some solved cases for reference:
>>> print(df.to_string())
                             sequence_chain  class_name
0  TCAGCCTCATGGACCGGTTTTCCCGGTAATCCGTATTTGAT (site TCAGCCTCTAT)         1.0
1  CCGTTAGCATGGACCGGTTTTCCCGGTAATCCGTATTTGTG (site CCGTTAACTCA)         0.0
2  AAGTAGGCATGGACCGGTTTTCCCGGTAATCCGTATTTGCA (site AAGTAGGCTTG)         1.0
3  TCATACACATGGACCGGTTTTCCCGGTAATCCGTATTTGCA (site TCATACTCTTG)         1.0
4  ACCCATTCATGGACCGGTTTTCCCGGTAATCCGTATTTGGA (site ACCCATTCTTC)         1.0
5  CAATCCCCATGGACCGGTTTTCCCGGTAATCCGTATTTGCT (site CAATTCCCTAG)         1.0
6  GCAATACCATGGACCGGTTTTCCCGGTAATCCGTATTTGTG (site GCAATACCTCA)         0.0
7  CAAGACACATGGACCGGTTTTCCCGGTAATCCGTATTTGGG (site CAAGGCACTCC)         0.0
8  AGACATCCATGGACCGGTTTTCCCGGTAATCCGTATTTGAC (site ACACATCCTGT)         0.0
9  TATGTGTCATGGACCGGTTTTCCCGGTAATCCGTATTTGAC (site CATGTGTCTGT)         0.0

Answer whether recombinant UMI read abundance (log10) of GTAGGTACATGGACCGGTTTTCCCGGTAATCCGTATTTGAC (site GAAGGTACTGT) is greater than or equal to 1.
0.0

Answer whether recombinant UMI read abundance (log10) of GGGTATCCATGGACCGGTTTTCCCGGTAATCCGTATTTGTT (site CGGAATCCTAA) is greater than or equal to 1.
0.0

Answer whether recombinant UMI read abundance (log10) of CTCCCTACATGGACCGGTTTTCCCGGTAATCCGTATTTGAG (site CTCCCTCCTCT) is greater than or equal to 1.
0.0

Answer whether recombinant UMI read abundance (log10) of CCCATAGCATGGACCGGTTTTCCCGGTAATCCGTATTTGTC (site CCCATATCTGA) is greater than or equal to 1.
0.0

Answer whether recombinant UMI read abundance (log10) of GTTCGAACATGGACCGGTTTTCCCGGTAATCCGTATTTGCA (site GTTCGAACTTG) is greater than or equal to 1.
0.0

====

experiment: recombinant UMI read abundance after kanamycin selection (control-corrected) (log10(CPM+1)); higher = more efficient recombination; extreme values may be limits of the assay; sequences stand for … in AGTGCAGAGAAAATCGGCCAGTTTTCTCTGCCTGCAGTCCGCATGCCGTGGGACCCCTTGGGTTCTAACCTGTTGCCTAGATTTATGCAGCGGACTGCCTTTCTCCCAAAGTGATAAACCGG…AGGTTGGTTTCACT; site = the 11-nt donor
Consider the following sequences and their measured recombinant UMI read abundance (log10) readings.

The examples below pair each entry with its known result.
>>> df
                             sequence_chain                          endpoint_label  result
0  ACATTATCATGGACCGGTTTTCCCGGTAATCCGTATTTGAA (site ACAGTATCTTG)  recombinant UMI read abundance (log10)       0
1  GTTAGAACATGGACCGGTTTTCCCGGTAATCCGTATTTGTC (site GTTAGAACTGC)  recombinant UMI read abundance (log10)       0
2  AATGTATCATGGACCGGTTTTCCCGGTAATCCGTATTTGCT (site AATGTACCTAG)  recombinant UMI read abundance (log10)    0.03

Look at this sequence and give its reported recombinant UMI read abundance (log10). CAAGTCTCATGGACCGGTTTTCCCGGTAATCCGTATTTGAC (site CTAGTATCTGT)
0.00697

Look at this sequence and give its reported recombinant UMI read abundance (log10). CCCGAGACATGGACCGGTTTTCCCGGTAATCCGTATTTGGT (site CCCGAGACTAC)
0.543

====

Consider the following sequences and their measured recombinant barcode read abundance (log10) readings.
assay: recombinant barcode read abundance after kanamycin selection (control-corrected) (log10(CPM+1)); higher = more efficient recombination; sequences stand for … in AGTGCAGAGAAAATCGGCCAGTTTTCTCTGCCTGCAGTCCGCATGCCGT…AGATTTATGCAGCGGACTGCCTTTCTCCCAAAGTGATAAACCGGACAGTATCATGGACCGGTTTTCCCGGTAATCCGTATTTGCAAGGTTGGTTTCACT; site = the 11-nt target
# respond with the number and nothing more

Look at this sequence and give its reported recombinant barcode read abundance (log10). CGTTCGACTTGGGTTCTAACCTGTTGCCT (site CGTTCTACTAG)
0.0286

Look at this sequence and give its reported recombinant barcode read abundance (log10). CCTATGTCTTGGGTTCTAACCTGTTGCTA (site ACTATGTCTTG)
0.0985

Look at this sequence and give its reported recombinant barcode read abundance (log10). TGGCTATCTTGGGTTCTAACCTGTTGCCT (site CGGCTATCTAG)
0.00906

Look at this sequence and give its reported recombinant barcode read abundance (log10). TTAGTCCCTTGGGTTCTAACCTGTTGCCT (site TTAGTACCTAG)
0.113

Look at this sequence and give its reported recombinant barcode read abundance (log10). CATTATTCTTGGGTTCTAACCTGTTGCCT (site CATAATTCTAG)
0.04

Look at this sequence and give its reported recombinant barcode read abundance (log10). AAGGAGACTTGGGTTCTAACCTGTTGCCT (site AAAGGGACTAG)
0.116

Look at this sequence and give its reported recombinant barcode read abundance (log10). TATAGGACTTGGGTTCTAACCTGTTGCGT (site GATAGGACTAC)
0.0102

Look at this sequence and give its reported recombinant barcode read abundance (log10). TTAACGGCTTGGGTTCTAACCTGTTGCCT (site TTCACGGCTAG)
0.186

Look at this sequence and give its reported recombinant barcode read abundance (log10). GGAGGGTCTTGGGTTCTAACCTGTTGCTT (site GGAGGGTCTAA)
1.72

Look at this sequence and give its reported recombinant barcode read abundance (log10). CGGCGTCCTTGGGTTCTAACCTGTTGCTA (site CGGTGTCCTTA)
0.42

Look at this sequence and give its reported recombinant barcode read abundance (log10). GCGGTATCTTGGGTTCTAACCTGTTGCCT (site GGGGTATCTAG)
0.105

Look at this sequence and give its reported recombinant barcode read abundance (log10). GCACAACCTTGGGTTCTAACCTGTTGCCT (site GCACAACCTAG)
1.89
